experiment: Antioxidant activity assessed as DPPH radical scavenging activity measured as discoloration incubated for 30 mins in dark; format: physicochemical
# strict inequality: IC50 < 80 µg/mL yields Y, everything else yields N

Example entries begin here.
| MOLECULE | ASSIGNED CATEGORY |
| --- | --- |
| COc1cc(COc2ccc(C(=O)N/N=C/c3cccc(O)c3)cc2)cc(OC)c1OC | N |
| COc1cc(/C=N/NC(=O)c2ccc(OCc3cc(OC)c(OC)c(OC)c3)cc2)cc(OC)c1O | Y |
| COc1cc(COc2ccc(C(=O)N/N=C/c3cc(C(C)(C)C)c(O)c(C(C)(C)C)c3)cc2)cc(OC)c1OC | Y |
| COc1cc(COc2ccc(C(=O)N/N=C/c3ccccc3O)cc2)cc(OC)c1OC | N |
| O=C1O[C@H]([C@@H](O)CO)C(O)=C1O | Y |
| COc1cc(/C=N/NC(=O)c2ccc(OCc3cc(OC)c(OC)c(OC)c3)cc2)cc(OC)c1OC | N |
| Cc1cc(C(C)(C)C)c(O)c(C(C)(C)C)c1 [BUTYLATED HYDROXYTOLUENE] | N |
| CCOc1cc(/C=N/NC(=O)c2ccc(OCc3cc(OC)c(OC)c(OC)c3)cc2)ccc1O | N |

## Task Does CCOC(=O)c1ccc(OCc2cc(OC)c(OC)c(OC)c2)cc1 have IC50 strictly under 80 µg/mL?
## Result N

## Task Also COc1cc(COc2ccc(C(=O)N/N=C/c3ccc(OC)c(OC)c3OC)cc2)cc(OC)c1OC ?
## Result N

## Task Next molecule: COc1cc(COc2ccc(C(=O)N/N=C/c3cc(Br)cc(Cl)c3O)cc2)cc(OC)c1OC
## Result N

## Task Request: COc1cc(COc2ccc(C(=O)N/N=C/c3ccc(O)cc3)cc2)cc(OC)c1OC
## Result N

## Task What do you have for COc1cc(COc2ccc(C(=O)NN)cc2)cc(OC)c1OC ?
## Result N
